# System: HT29 subcutaneous xenograft tumor
# experimentSummary: In vivo pharmacodynamic study, mouse HT29 subcutaneous xenograft tumor model
# Set-up: species or system BALB/c nude mice
# testContext: 80 mg/kg intragastric once daily, day 28 vs day 1
Reported TGI (tumor growth inhibition) values for a set of compounds

Below: 2 compounds and their reported TGI (tumor growth inhibition).
> print(dat)
                                   compound  readoutvalue
1  COc1ccc(C(=O)Nc2ccc(NS(=O)(=O)CCOC(C)=O)cc2N2CCC3(CC2)CC3)nc1N1CCC(F)(F)CC1           30%
2  Cc1cc(NC(=O)c2ccc(NS(=O)(=O)CCO)cc2N2CCC3(CC2)CC3)nc(N2CCC(F)(F)CC2)n1 [AMG650, reference compound]           64%

Shift focus to the following entry.
## Task For the compound COc1ccc(NC(=O)c2ccc(S(=O)(=O)NCCOC(C)=O)cc2N2CCC3(CC2)CC3)nc1N1CCC(F)(F)CC1 , what TGI (tumor growth inhibition) is on record?
## Result 55%

----------
# System: HT29 subcutaneous xenograft tumor
# experimentSummary: In vivo pharmacodynamic study, mouse HT29 subcutaneous xenograft tumor model
# Parameters: species or system BALB/c nude mice
# testContext: 80 mg/kg intragastric once daily, day 28 vs day 1
# key: entry, value: TGI (tumor growth inhibition)
# unit: % | format: bare number

> print(dat)
                                   molecule  readoutvalue
1  COc1ccc(NC(=O)c2ccc(NS(=O)(=O)CCOC(C)=O)cc2N2CCC3(CC2)CC3)nc1N1CCC(F)(F)CC1 [Compound 661]            61
2  COc1ccc(NC(=O)c2ccc(S(=O)(=O)NCCOC(=O)[C@@H](N)C(C)C)cc2N2CCC3(CC2)CC3)nc1N1CCC(F)(F)CC1 [Compound 740]            67
3  COc1ccc(C(=O)Nc2ccc(NS(=O)(=O)CCOC(=O)[C@@H](N)C(C)C)cc2N2CCC3(CC2)CC3)nc1N1CCC(F)(F)CC1 [Compound 727]            73

## Task What value of TGI (tumor growth inhibition) has been reported for the following molecule? COc1ccc(NC(=O)c2ccc(NS(=O)(=O)CCOC(=O)[C@@H](N)C(C)C)cc2N2CCC3(CC2)CC3)nc1N1CCC(F)(F)CC1 [Compound 714]
## Result 80

----------
# targetEntity: Recombinant human KIF18A (1-467His-tagged) protein (Homo sapiens, UniProt Q8NI77)
# Construct: Recombinant human KIF18A (1-467His-tagged) protein; His
# Sequence (Q8NI77 1-467): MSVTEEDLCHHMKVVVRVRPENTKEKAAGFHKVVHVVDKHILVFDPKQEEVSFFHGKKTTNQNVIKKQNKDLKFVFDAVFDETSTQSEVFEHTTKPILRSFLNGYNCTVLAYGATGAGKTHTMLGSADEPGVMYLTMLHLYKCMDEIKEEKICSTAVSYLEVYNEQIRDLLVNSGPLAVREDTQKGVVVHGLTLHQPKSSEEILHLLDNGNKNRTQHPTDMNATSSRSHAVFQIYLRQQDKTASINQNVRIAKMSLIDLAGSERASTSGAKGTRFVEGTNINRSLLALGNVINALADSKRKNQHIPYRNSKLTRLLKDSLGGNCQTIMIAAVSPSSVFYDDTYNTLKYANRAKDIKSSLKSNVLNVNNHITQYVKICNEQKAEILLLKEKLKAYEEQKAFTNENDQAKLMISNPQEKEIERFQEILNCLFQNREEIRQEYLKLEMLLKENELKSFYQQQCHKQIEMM
# Sequence (P02550 whole entry partner): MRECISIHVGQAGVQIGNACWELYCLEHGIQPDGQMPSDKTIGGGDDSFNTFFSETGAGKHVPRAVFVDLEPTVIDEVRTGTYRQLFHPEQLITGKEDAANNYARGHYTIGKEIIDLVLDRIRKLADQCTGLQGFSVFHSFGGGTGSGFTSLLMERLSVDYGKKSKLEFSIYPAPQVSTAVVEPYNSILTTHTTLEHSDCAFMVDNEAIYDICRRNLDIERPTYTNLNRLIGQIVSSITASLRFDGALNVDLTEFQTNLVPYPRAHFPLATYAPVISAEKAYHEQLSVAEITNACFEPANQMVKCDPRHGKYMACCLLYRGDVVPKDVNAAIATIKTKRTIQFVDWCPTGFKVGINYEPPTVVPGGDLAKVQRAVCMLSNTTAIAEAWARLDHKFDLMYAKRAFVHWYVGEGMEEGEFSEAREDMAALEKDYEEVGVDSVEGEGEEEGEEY
# Sequence (P02554 whole entry partner): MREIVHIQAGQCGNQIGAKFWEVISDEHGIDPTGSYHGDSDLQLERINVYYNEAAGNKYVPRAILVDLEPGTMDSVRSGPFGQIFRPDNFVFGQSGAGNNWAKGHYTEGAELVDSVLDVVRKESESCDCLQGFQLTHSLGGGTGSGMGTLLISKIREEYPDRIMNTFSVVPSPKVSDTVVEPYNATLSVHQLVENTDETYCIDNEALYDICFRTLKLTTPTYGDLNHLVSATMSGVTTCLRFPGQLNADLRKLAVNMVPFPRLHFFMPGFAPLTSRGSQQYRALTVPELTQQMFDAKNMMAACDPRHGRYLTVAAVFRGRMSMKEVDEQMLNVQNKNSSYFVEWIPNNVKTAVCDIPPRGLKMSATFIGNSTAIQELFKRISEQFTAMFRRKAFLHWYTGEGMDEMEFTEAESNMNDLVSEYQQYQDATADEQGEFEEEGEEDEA
# experimentSummary: KIF18A enzyme assay (microtubule-stimulated ATPase activity, ADP-Glo)
# testContext: 30 nM KIF18A, 75 μM ATP, 30 μg/mL pig microtubules; read-out: Inhibitory activity against KIF18A IC50
endpoint: IC50

## Task Lab note: need IC50 for COc1ccc(C(=O)Nc2cnc(NS(=O)(=O)CCO)cc2N2CCC3(CC2)CC3)nc1N1CCO[C@@H](C)C1 [Compound 355] on Recombinant human KIF18A (1-467His-tagged) protein (Homo sapiens, UniProt Q8NI77), anyone have it?
## Result ≤ 100 nM

----------
# targetEntity: Recombinant human KIF18A (1-467His-tagged) protein (Homo sapiens)
# Construct: Recombinant human KIF18A (1-467His-tagged) protein; His
# experimentSummary: KIF18A enzyme assay (microtubule-stimulated ATPase activity, ADP-Glo)
# testContext: 30 nM KIF18A, 75 μM ATP, 30 μg/mL pig microtubules; read-out: Inhibitory activity against KIF18A IC50
pIC50: −log10 of the molar value.
endpoint: pIC50

> print(dat)
                                   compound  readoutvalue
1  CSc1ccc(NC(=O)c2cnc(NS(=O)(=O)[C@@H](C)CO)cc2N2CCC3(CC2)CC3)nc1N1CCC(F)(F)CC1 [Compound 637]        ≥ 7.00
2  CC(C)(CO)Nc1nc(C(=O)Nc2ccc(S(=O)(=O)NCCO)cc2N2CCC3(CC2)CC3)ccc1[N+](=O)[O-] [Compound 187]  6.30 to 7.00
3  O=C(Nc1ccc([N+](=O)[O-])c(N2CC(F)(F)C2)n1)c1ccc(S(=O)(=O)NCCO)cc1N1CCC2(CC1)CC2 [Compound 84]        ≥ 7.00
4  C[C@@H](CO)S(=O)(=O)Nc1cc(N2CCC3(CC2)CC3)c(C(=O)Nc2ccc([N+](=O)[O-])c(N3CCC(F)(F)CC3)c2)cn1 [Compound 109]        ≥ 7.00
5  CSc1ccc(NC(=O)c2cnc(NS(=O)(=O)CCO)cc2N2CCC3(CC2)CC3)cc1N1CCC(F)CC1 [Compound 617]        ≥ 7.00

Now look at this one.
## Task For C[C@H](CO)NS(=O)(=O)c1ccc(NC(=O)c2ccc(OCF)c(N3CCO[C@H](C)C3)c2)c(N2CCC3(CC2)CC3)c1 [Compound 544] , what is its reported pIC50?
## Result 6.30 to 7.00
